study_conditions: 338.15 K; 101.33 kPa; Liquid; Single path-length method
readout_label: speed of sound (m/s)

In [3]: df
Out[3]:
                                   compound  unit_text  test_result
0  CCCCCC(=O)[O-].CCCCCC[NH+](CCCCCC)CCCCCC [trihexylammonium hexanoate]        m/s       1196.9
1  CCCC(=O)[O-].CCCCCCCC[NH+](CCCCCCCC)CCCCCCCC [trioctylammonium butanoate]        m/s       1222.5
2  CCCCCC(=O)[O-].CCCCCCCC[NH+](CCCCCCCC)CCCCCCCC [trioctylammonium hexanoate]        m/s       1230.1
3  CCCCCCCC(=O)[O-].CCCCCCCC[NH+](CCCCCCCC)CCCCCCCC [trioctylammonium octanoate]        m/s       1239.2
4  CCCCCCCC(=O)[O-].CCCCCC[NH+](CCCCCC)CCCCCC [trihexylammonium octanoate]        m/s       1209.9
5  CCCC(=O)[O-].CCCCCC[NH+](CCCCCC)CCCCCC [trihexylammonium butanoate]        m/s       1187.3

----------
method_notes: refractive index (Na D-line) (dimensionless)
study_conditions: 318.15 K; 101.33 kPa; Liquid; Standard Abbe refractometry
readout_label: refractive index

>>> df
                                   compound  test_result
0  CCCC(=O)[O-].CCCCCCCC[NH+](CCCCCCCC)CCCCCCCC [trioctylammonium butanoate]       1.4376
1  CCCCCC(=O)[O-].CCCCCCCC[NH+](CCCCCCCC)CCCCCCCC [trioctylammonium hexanoate]       1.4394
2  CCCCCC(=O)[O-].CCCCCC[NH+](CCCCCC)CCCCCC [trihexylammonium hexanoate]       1.4336
3  CCCC(=O)[O-].CCCCCC[NH+](CCCCCC)CCCCCC [trihexylammonium butanoate]       1.4322
4  CCCCCCCC(=O)[O-].CCCCCCCC[NH+](CCCCCCCC)CCCCCCCC [trioctylammonium octanoate]       1.4406
5  CCCCCCCC(=O)[O-].CCCCCC[NH+](CCCCCC)CCCCCC [trihexylammonium octanoate]       1.4359

----------
study_conditions: 313.15 K; 101.33 kPa; Liquid; Single path-length method
readout_label: speed of sound (m/s)

>>> print(df.to_string())
                                   compound   readout_label  test_result
0  CCCCCC(=O)[O-].CCCCCC[NH+](CCCCCC)CCCCCC [trihexylammonium hexanoate]  speed of sound       1282.2
1  CCCC(=O)[O-].CCCCCC[NH+](CCCCCC)CCCCCC [trihexylammonium butanoate]  speed of sound         1273
2  CCCC(=O)[O-].CCCCCCCC[NH+](CCCCCCCC)CCCCCCCC [trioctylammonium butanoate]  speed of sound       1306.8
3  CCCCCCCC(=O)[O-].CCCCCC[NH+](CCCCCC)CCCCCC [trihexylammonium octanoate]  speed of sound       1294.7
4  CCCCCC(=O)[O-].CCCCCCCC[NH+](CCCCCCCC)CCCCCCCC [trioctylammonium hexanoate]  speed of sound       1313.8
5  CCCCCCCC(=O)[O-].CCCCCCCC[NH+](CCCCCCCC)CCCCCCCC [trioctylammonium octanoate]  speed of sound       1322.8

----------
study_conditions: 333.15 K; 101.33 kPa; Liquid; Single path-length method
readout_label: speed of sound (m/s)

>>> df
                                   compound  unit_text  test_result
0  CCCCCC(=O)[O-].CCCCCC[NH+](CCCCCC)CCCCCC [trihexylammonium hexanoate]        m/s       1213.7
1  CCCCCCCC(=O)[O-].CCCCCCCC[NH+](CCCCCCCC)CCCCCCCC [trioctylammonium octanoate]        m/s       1255.5
2  CCCC(=O)[O-].CCCCCC[NH+](CCCCCC)CCCCCC [trihexylammonium butanoate]        m/s         1204
3  CCCC(=O)[O-].CCCCCCCC[NH+](CCCCCCCC)CCCCCCCC [trioctylammonium butanoate]        m/s         1239
4  CCCCCCCC(=O)[O-].CCCCCC[NH+](CCCCCC)CCCCCC [trihexylammonium octanoate]        m/s       1226.5
5  CCCCCC(=O)[O-].CCCCCCCC[NH+](CCCCCCCC)CCCCCCCC [trioctylammonium hexanoate]        m/s       1246.4

----------
study_conditions: 303.15 K; 101.33 kPa; Liquid; Falling or rolling sphere viscometry
readout_label: viscosity (mPa·s)

                                   compound  unit_text  test_result
0  CCCCCC(=O)[O-].CCCCCC[NH+](CCCCCC)CCCCCC [trihexylammonium hexanoate]      mPa·s         9.55
1  CCCCCCCC(=O)[O-].CCCCCCCC[NH+](CCCCCCCC)CCCCCCCC [trioctylammonium octanoate]      mPa·s        16.63
2  CCCCCCCC(=O)[O-].CCCCCC[NH+](CCCCCC)CCCCCC [trihexylammonium octanoate]      mPa·s        11.55
3  CCCC(=O)[O-].CCCCCCCC[NH+](CCCCCCCC)CCCCCCCC [trioctylammonium butanoate]      mPa·s        12.06

a. CCCCCC(=O)[O-].CCCCCCCC[NH+](CCCCCCCC)CCCCCCCC [trioctylammonium hexanoate]
b. CCCC(=O)[O-].CCCCCC[NH+](CCCCCC)CCCCCC [trihexylammonium butanoate]
Query: Given a and b , report the one with the higher recorded viscosity. The response must carry the label of the picked entry.
Result: a

----------
study_conditions: 298.15 K; 101.33 kPa; Liquid; Falling or rolling sphere viscometry
readout_label: viscosity (mPa·s)

// solved cases for viscosity follow
>>> df
                                   compound  test_result
0  CCCCCC(=O)[O-].CCCCCC[NH+](CCCCCC)CCCCCC [trihexylammonium hexanoate]        11.44
1  CCCCCC(=O)[O-].CCCCCCCC[NH+](CCCCCCCC)CCCCCCCC [trioctylammonium hexanoate]        16.72
2  CCCC(=O)[O-].CCCCCCCC[NH+](CCCCCCCC)CCCCCCCC [trioctylammonium butanoate]        14.55

1. CCCCCCCC(=O)[O-].CCCCCCCC[NH+](CCCCCCCC)CCCCCCCC [trioctylammonium octanoate]
2. CCCC(=O)[O-].CCCCCC[NH+](CCCCCC)CCCCCC [trihexylammonium butanoate]
Query: So which one has the bigger viscosity here, 1 or 2 ? Refer to your chosen entry by its label in the reply.
Result: 1

----------
study_conditions: 328.15 K; 101.33 kPa; Liquid; Falling or rolling sphere viscometry
readout_label: viscosity (mPa·s)

Use these answered entries as a reference point.
>>> df
                                   molecule  unit_text  test_result
0  CCCC(=O)[O-].CCCCCCCC[NH+](CCCCCCCC)CCCCCCCC [trioctylammonium butanoate]      mPa·s         5.49
1  CCCCCCCC(=O)[O-].CCCCCCCC[NH+](CCCCCCCC)CCCCCCCC [trioctylammonium octanoate]      mPa·s         7.26
2  CCCCCC(=O)[O-].CCCCCC[NH+](CCCCCC)CCCCCC [trihexylammonium hexanoate]      mPa·s         4.48
3  CCCCCCCC(=O)[O-].CCCCCC[NH+](CCCCCC)CCCCCC [trihexylammonium octanoate]      mPa·s         5.27

P. CCCC(=O)[O-].CCCCCC[NH+](CCCCCC)CCCCCC [trihexylammonium butanoate]
Q. CCCCCC(=O)[O-].CCCCCCCC[NH+](CCCCCCCC)CCCCCCCC [trioctylammonium hexanoate]
Query: Hi there! Just curious which has the higher viscosity between P and Q . Give the label under which the chosen entry appears.
Result: Q

----------
study_conditions: 298.15 K; 101.33 kPa; Liquid; Vibrating tube method
readout_label: mass density (kg/m3)

>>> print(df.to_string())
                                   compound  test_result
0  CCCC(=O)[O-].CCCCCCCC[NH+](CCCCCCCC)CCCCCCCC [trioctylammonium butanoate]       842.19
1  CCCCCC(=O)[O-].CCCCCCCC[NH+](CCCCCCCC)CCCCCCCC [trioctylammonium hexanoate]       844.54
2  CCCCCC(=O)[O-].CCCCCC[NH+](CCCCCC)CCCCCC [trihexylammonium hexanoate]       846.21
3  CCCC(=O)[O-].CCCCCC[NH+](CCCCCC)CCCCCC [trihexylammonium butanoate]       844.32
4  CCCCCCCC(=O)[O-].CCCCCCCC[NH+](CCCCCCCC)CCCCCCCC [trioctylammonium octanoate]       846.22
5  CCCCCCCC(=O)[O-].CCCCCC[NH+](CCCCCC)CCCCCC [trihexylammonium octanoate]       847.63

# credit: the NIST ThermoML archive (doi:10.1016/j.jct.2019.02.015)
